Each recorded value in this set is attributed to the supplement of paper PMC11061612.

- Tested on: CAL-39 (Other Solid Carcinomas)
- Measurement Description: combination Emax (second highest fraction inhibited in the dose matrix, 72 h); higher = more inhibition; extreme values may be limits of the assay
Each entry below lists one item and its recorded combination Emax value.
Field format: numeric only.

[
  {
    "Molecule": "Cc1cc2ncnn2cc1Nc1ncc2c(n1)n(C1CCOCC1)c(=O)n2C [AZD7648] + C[C@@H]1COCCN1C2=NC(=NC(=C2)C3(CC3)[S@](=N)(=O)C)C4=C5C=CNC5=NC=C4 [AZD6738] (first compound max 10 µM, 7x7, partner max 10 µM)",
    "combination Emax": 0.485
  },
  {
    "Molecule": "O=C(c1cc(Cc2n[nH]c(=O)c3ccccc23)ccc1F)N1CCN(C(=O)C2CC2)CC1 [Olaparib] + Cc1c2c(nn1C)CSCc1cc(n(C)n1)CSc1cc(c3ccccc3c1)OCCCc1c(C(=O)O)n(C)c3c-2c(Cl)ccc13 [AZD5991] (first compound max 10 µM, 7x7, partner max 1 µM)",
    "combination Emax": 0.21
  }
]

Pending molecule:
Ask: Quick one: give measured combination Emax for CC1(C)CCC(CN2CCN(c3ccc(C(=O)NS(=O)(=O)c4ccc(NCC5CCOCC5)c([N+](=O)[O-])c4)c(Oc4cnc5[nH]ccc5c4)c3)CC2)=C(c2ccc(Cl)cc2)C1 [Venetoclax] + C[C@@H]1COCCN1C2=NC(=NC(=C2)C3(CC3)[S@](=N)(=O)C)C4=C5C=CNC5=NC=C4 [AZD6738] (first compound max 1 µM, 7x7, partner max 10 µM)
Result: 0.397
